target: ACA-6701; test: Competitive binding peptide ACA ELISA, cardiolipin/β2-GPI-coated plates; parameters: species or system human; details: cyclic thioether analogs
Numbered stars: 1 amine (or outer) side, 2 acyl side, 3 side chain; on linkers, the order of the positions; unused ones are H or OH. Bridge positions count the residues as written; N and C are the ends. Square brackets hold non-standard residues; d marks the D form. Peptide text beside a SMILES is read from it. Abu(4-yl) = O=C([C@H](CC[*:3])N[*:1])[*:2]; hCys = N[C@@H](CCS)C(=O)O
Entries whose IC50 Values, ACA-6701 is below 4 μg/0.1 mL take met; entries at or above 4 μg/0.1 mL take not met.

[[record]]
compound = "CC(C)C[C@@H]1NC(=O)[C@H](CCCCN)NC(=O)CNC(=O)[C@H](CC(C)C)NC(=O)[C@H](C(C)C)NC(=O)CNC(=O)[C@H](CC(C)C)NC(=O)[C@@H](N)CSC[C@@H](C(=O)O)NC1=O"
discrete_label = "not met"

[[record]]
compound = "CC(C)C[C@@H]1NC(=O)[C@H](CCCCN)NC(=O)CNC(=O)[C@H](CC(C)C)NC(=O)[C@H](C(C)C)NC(=O)CNC(=O)[C@H](CC(C)C)NC(=O)[C@@H](N)CCSCC[C@@H](C(=O)O)NC1=O [LJP 703] (H-[hCys]LGVLGKL[Abu(4-yl)]-OH; thioether 1-9; N-terminus and C-terminus assumed)"
discrete_label = "met"

[[record]]
compound = "CC(C)C[C@@H]1NC(=O)[C@H](CCCCN)NC(=O)CNC(=O)[C@H](CC(C)C)NC(=O)[C@H](C(C)C)NC(=O)CNC(=O)[C@H](CC(C)C)NC(=O)[C@@H](N)CSCC[C@@H](C(=O)O)NC1=O [LJP 702] (H-CLGVLGKL[Abu(4-yl)]-OH; thioether 1-9; N-terminus and C-terminus assumed)"
discrete_label = "met"

[[record]]
compound = "CC(C)C[C@@H]1NC(=O)[C@H](CCCCN)NC(=O)CNC(=O)[C@H](CC(C)C)NC(=O)[C@H](C(C)C)NC(=O)CNC(=O)[C@H](CC(C)C)NC(=O)[C@@H](N)CCSC[C@@H](C(=O)O)NC1=O [LJP 699] (H-[Abu(4-yl)]LGVLGKLC-OH; thioether 1-9)"
discrete_label = "met"


* * *

target: ACA-6501; assay: Competitive binding peptide ACA ELISA, cardiolipin/β2-GPI-coated plates; parameters: species or system human; conditions: Optimization of Peptide 3G3; inf = no 50% inhibition
Numbered stars: 1 amine (or outer) side, 2 acyl side, 3 side chain; on linkers, the order of the positions; unused ones are H or OH. Bridge positions count the residues as written; N and C are the ends. Square brackets hold non-standard residues; d marks the D form. Peptide text beside a SMILES is read from it. Abu(4-yl) = O=C([C@H](CC[*:3])N[*:1])[*:2]; Phg = N[C@H](C(=O)O)c1ccccc1; NMeV = CN[C@H](C(=O)O)C(C)C; Aib = CC(C)(N)C(=O)O
observed-property: with ACA 6501 150 ug/mL (µg/mL)

[[record]]
compound = "CC(C)C[C@@H]1NC(=O)[C@H](CCCCN)NC(=O)CNC(=O)[C@H](CC(C)C)NC(=O)[C@H](C(C)C)N(C)C(=O)CNC(=O)[C@H](CC(C)C)NC(=O)[C@@H](N)CSSC[C@@H](C(=O)O)NC1=O [C L G nV L G K L C] (H-CLG[NMeV]LGKLC-OH; disulfide 1-9)"
reading = 220

[[record]]
compound = "CC(C)C[C@@H]1NC(=O)[C@H](CCCCN)NC(=O)CNC(=O)[C@H](CC(C)C)NC(=O)[C@H](C(C)C)NC(=O)CNC(=O)[C@H](c2ccccc2)NC(=O)[C@@H](N)CSSC[C@@H](C(=O)O)NC1=O [C pG G V L G K L C] (H-C[Phg]GVLGKLC-OH; disulfide 1-9)"
reading = 130

[[record]]
compound = "CC(C)C[C@@H]1NC(=O)[C@H](C(C)C)NC(=O)CNC(=O)[C@H](CC(C)C)NC(=O)[C@@H](N)CSSC[C@@H](C(=O)O)NC(=O)[C@H](CC(C)C)NC(=O)[C@@H](CCCCN)NC(=O)CNC1=O [C L G V L G dK L C] (H-CLGVLG[dK]LC-OH; disulfide 1-9)"
reading = 170

[[record]]
compound = "CC(C)C[C@@H]1NC(=O)[C@@H](NC(=O)[C@@H]2CCCN2)CSSC[C@@H](C(=O)N2CCC[C@H]2C(=O)NCC(=O)O)NC(=O)[C@H](CC(C)C)NC(=O)[C@H](CCCCN)NC(=O)CNC(=O)[C@H](CC(C)C)NC(=O)[C@H](C(C)C)NC(=O)CNC1=O [P C L G V L G K L C P G] (H-PCLGVLGKLCPG-OH; disulfide 2-10)"
reading = 420

[[record]]
compound = "CC(C)C[C@@H]1NC(=O)[C@H](CCCCN)NC(=O)CNC(=O)[C@H](CC(C)C)NC(=O)[C@H](C(C)C)NC(=O)CNC(=O)[C@H](CC(C)C)NC(=O)[C@@H](N)CSCC[C@@H](C(=O)O)NC1=O [LJP 702] (H-CLGVLGKL[Abu(4-yl)]-OH; thioether 1-9; N-terminus and C-terminus assumed)"
reading = 92

[[record]]
compound = "CC(C)C[C@@H]1NC(=O)[C@H](CCCCN)NC(=O)CNC(=O)[C@H](CC(C)C)NC(=O)[C@H](C(C)C)NC(=O)[C@@H]2CCCN2C(=O)[C@H](CC(C)C)NC(=O)[C@@H](N)CSSC[C@@H](C(=O)O)NC1=O [C L P V L G K L C] (H-CLPVLGKLC-OH; disulfide 1-9)"
reading = 340

[[record]]
compound = "CC(C)C[C@@H]1NC(=O)[C@H](CCCCN)NC(=O)CNC(=O)[C@H](CC(C)C)NC(=O)[C@@H](C(C)C)NC(=O)CNC(=O)[C@H](CC(C)C)NC(=O)[C@@H](N)CSSC[C@@H](C(=O)O)NC1=O [C L G dV L G K L C] (H-CLG[dV]LGKLC-OH; disulfide 1-9)"
reading = 260

[[record]]
compound = "CC(C)C[C@@H]1NC(=O)[C@H](C(C)C)NC(=O)CNC(=O)[C@H](CC(C)C)NC(=O)[C@@H](N)CSSC[C@@H](C(=O)O)NC(=O)[C@H](CC(C)C)NC(=O)C(C)(C)NC(=O)CNC1=O [C L G V L G aiB L C] (H-CLGVLG[Aib]LC-OH; disulfide 1-9)"
reading = 460

[[record]]
compound = "CC(C)C[C@@H]1NC(=O)[C@H](CCCCN)NC(=O)CNC(=O)[C@H](CC(C)C)NC(=O)C(C)(C)NC(=O)CNC(=O)[C@H](CC(C)C)NC(=O)[C@@H](N)CSSC[C@@H](C(=O)O)NC1=O [C L G aiB L G K L C] (H-CLG[Aib]LGKLC-OH; disulfide 1-9)"
reading = 110

[[record]]
compound = "CC(C)C[C@@H]1NC(=O)[C@@H](NC(=O)[C@@H]2CCCN2C(=O)CNC(=O)[C@H](C)N)CSSC[C@@H](C(=O)NCC(=O)O)NC(=O)[C@H](CC(C)C)NC(=O)[C@H](CCCCN)NC(=O)CNC(=O)[C@H](CC(C)C)NC(=O)[C@H](C(C)C)NC(=O)CNC1=O [A G P C L G V L G K L C G] (H-AGPCLGVLGKLCG-OH; disulfide 4-12)"
reading = 450

[[record]]
compound = "CC(C)C[C@@H]1NC(=O)[C@H](C)NC(=O)CNC(=O)[C@H](CC(C)C)NC(=O)[C@@H](N)CSSC[C@@H](C(=O)O)NC(=O)[C@H](CC(C)C)NC(=O)[C@H](CCCCN)NC(=O)CNC1=O [C L G A L G K L C] (H-CLGALGKLC-OH; disulfide 1-9)"
reading = 260

[[record]]
compound = "CC(C)C[C@@H]1NC(=O)[C@H](CCCCN)NC(=O)CNC(=O)[C@H](CC(C)C)NC(=O)[C@H](C(C)C)NC(=O)C(C)(C)NC(=O)[C@H](CC(C)C)NC(=O)[C@@H](N)CSSC[C@@H](C(=O)O)NC1=O [C L aiB V L G K L C] (H-CL[Aib]VLGKLC-OH; disulfide 1-9)"
reading = 80

[[record]]
compound = "CC(C)C[C@@H]1NC(=O)[C@H](CCCCN)NC(=O)CNC(=O)[C@H](CC(C)C)NC(=O)[C@H](C(C)C)NC(=O)CNC(=O)[C@@H](CC(C)C)NC(=O)[C@@H](N)CSSC[C@@H](C(=O)O)NC1=O [CdL G V L G K L C] (H-C[dL]GVLGKLC-OH; disulfide 1-9)"
reading = 180

